Biological target: T1, Human Nectin-4 (human, UniProt Q96NY8 32-349, limits assumed)
T1 construct: Protein immobilised on the SPR chip; also called target protein
T1 sequence: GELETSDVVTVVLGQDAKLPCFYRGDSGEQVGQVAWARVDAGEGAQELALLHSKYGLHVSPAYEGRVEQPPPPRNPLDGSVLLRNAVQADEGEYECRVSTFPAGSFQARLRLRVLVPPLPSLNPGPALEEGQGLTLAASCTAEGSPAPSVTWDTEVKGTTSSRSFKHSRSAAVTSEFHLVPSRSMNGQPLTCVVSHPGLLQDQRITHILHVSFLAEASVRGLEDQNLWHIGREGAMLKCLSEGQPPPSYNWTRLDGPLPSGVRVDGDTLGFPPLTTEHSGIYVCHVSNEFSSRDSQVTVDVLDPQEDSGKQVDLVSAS
Experiment: Table 2B (DELFIA or SPR)
Bridges are numbered along the chain shown (N, C = ends). Primed or numbered codes have the meaning given here. Where no end group is shown, it is not given here. The star is where a group is joined. Biotin = O=C1N[C@H]2[C@H](CS[C@H]2CCCCC(=O)*)N1; PEG4″ = 4(ethylene glycol)
Value type: pKd
The value called pKd is obtained by taking minus log10 of the concentration in mol/L.

Check out these entries, answers already filled in.
# Binder, pKd
measured = [
    ("{Biotin-PEG4″}-CEYDEQFFTALKRLRGDDICSYIQASFQYLPGLCIEEILDNLGCS (designed binder, disulfide 1-34, 20-44) [C186]", 8.77),
    ("Ac-CEYDEEFFAGLHRLRGGDICYYIKKKFDKVPDLCIEEILDKLGC-OH (designed binder, disulfide 1-34, 20-44) [C20]", 7.66),
]

Moving on to the next binder.
Data request, read-out pKd, for {Biotin-PEG4″}-CEYDEEFFTALKRLRGGDICEYIQASFQYLPGECIEEILQNLGCS-OH (designed binder, disulfide 1-34, 20-44) [C204]
8.70
